# Test system: P-gp and BCRP
# test.protocol: P-gp and BCRP substrate assessment, bidirectional permeability in C2BBe1 cells
# conditions: human, Caco-2, pH 7.4, probe digoxin (P-gp), cladribine (BCRP), AP-to-BL Papp, C2BBe1 cells, 10 μM probe, batch used with Sol_2; single replicates
readout.name: Papp A→B at 10 µM (×10⁻⁶ cm/s)
Give the quantity in ×10⁻⁶ cm/s, number only.

Assign Papp A→B at 10 µM to the following record: C[C@H]1O[C@@H](O[C@H]2[C@@H](O)C[C@H](O[C@H]3[C@@H](O)C[C@H](O[C@H]4CC[C@@]5(C)[C@H](CC[C@@H]6[C@@H]5C[C@@H](O)[C@]5(C)[C@@H](C7=CC(=O)OC7)CC[C@]65O)C4)O[C@@H]3C)O[C@@H]2C)C[C@H](O)[C@@H]1O 0.323

====

# Test system: P-gp and BCRP
# test.protocol: P-gp and BCRP substrate assessment, bidirectional permeability in C2BBe1 cells
# conditions: human, Caco-2, pH 7.4, probe digoxin (P-gp), cladribine (BCRP), AP-to-BL Papp, C2BBe1 cells, 10 μM probe, batch used with Sol_1, Sol_3, and Sol_4; single replicates
readout.name: Papp A→B at 10 µM (×10⁻⁶ cm/s)
Use ×10⁻⁶ cm/s as the unit, but write only the number.

Return value of Papp A→B at 10 µM for input C[C@H]1O[C@@H](O[C@H]2[C@@H](O)C[C@H](O[C@H]3[C@@H](O)C[C@H](O[C@H]4CC[C@@]5(C)[C@H](CC[C@@H]6[C@@H]5C[C@@H](O)[C@]5(C)[C@@H](C7=CC(=O)OC7)CC[C@]65O)C4)O[C@@H]3C)O[C@@H]2C)C[C@H](O)[C@@H]1O [digoxin] , no commentary. 0.326

====

# System: P-gp and BCRP
# test.protocol: in vitro
# conditions: human, Caco-2, pH 7.4, AP-to-BL Papp of TUDCA
readout.name: Papp A→B at 1.62 µM
Units required after the number.

Tell us which Papp A→B at 1.62 µM value is on record for C[C@H](CCC(=O)NCCS(=O)(=O)O)[C@H]1CC[C@H]2[C@@H]3[C@@H](O)C[C@@H]4C[C@H](O)CC[C@]4(C)[C@H]3CC[C@]12C [TUDCA, tauroursodeoxycholic acid] 9.59 ×10⁻⁶ cm/s

====

# Test system: P-gp and BCRP
# test.protocol: P-gp and BCRP substrate assessment, bidirectional permeability in C2BBe1 cells
# conditions: human, Caco-2, pH 7.4, probe digoxin (P-gp), cladribine (BCRP), BL-to-AP Papp, C2BBe1 cells, 10 μM probe, batch used with Sol_2; single replicates
readout.name: Papp B→A at 10 µM (×10⁻⁶ cm/s)
Return type: number; implicit unit ×10⁻⁶ cm/s.

// fetch Papp B→A at 10 µM given entry C[C@H]1O[C@@H](O[C@H]2[C@@H](O)C[C@H](O[C@H]3[C@@H](O)C[C@H](O[C@H]4CC[C@@]5(C)[C@H](CC[C@@H]6[C@@H]5C[C@@H](O)[C@]5(C)[C@@H](C7=CC(=O)OC7)CC[C@]65O)C4)O[C@@H]3C)O[C@@H]2C)C[C@H](O)[C@@H]1O 13.5

====

# Tested on: P-gp and BCRP
# test.protocol: P-gp and BCRP substrate assessment, bidirectional permeability in C2BBe1 cells
# conditions: human, Caco-2, pH 7.4, AP-to-BL Recovery, C2BBe1 cells, 10 μM probe, batch used with Sol_2; Average
readout.name: recovery at 10 μM

Give me measured recovery at 10 μM, please, for this molecule: C[C@H]1O[C@@H](O[C@H]2[C@@H](O)C[C@H](O[C@H]3[C@@H](O)C[C@H](O[C@H]4CC[C@@]5(C)[C@H](CC[C@@H]6[C@@H]5C[C@@H](O)[C@]5(C)[C@@H](C7=CC(=O)OC7)CC[C@]65O)C4)O[C@@H]3C)O[C@@H]2C)C[C@H](O)[C@@H]1O 86.3%

====

# Tested on: P-gp and BCRP
# test.protocol: P-gp and BCRP substrate assessment, bidirectional permeability in C2BBe1 cells
# conditions: human, Caco-2, pH 7.4, BL-to-AP Recovery, C2BBe1 cells, 10 μM probe, batch used with Sol_1, Sol_3, and Sol_4; single replicates
readout.name: recovery at 10 μM (%)
Answer with a number only, understood to be in %.

Give me measured recovery at 10 μM, please, for this compound: C[C@H]1O[C@@H](O[C@H]2[C@@H](O)C[C@H](O[C@H]3[C@@H](O)C[C@H](O[C@H]4CC[C@@]5(C)[C@H](CC[C@@H]6[C@@H]5C[C@@H](O)[C@]5(C)[C@@H](C7=CC(=O)OC7)CC[C@]65O)C4)O[C@@H]3C)O[C@@H]2C)C[C@H](O)[C@@H]1O 84.1

====

# test.protocol: Non-specific binding assessment, efflux transporter format (cell-free Transwell plates)
# Format: in vitro ADME
# conditions: pH 7.4, all three replicates
readout.name: recovery

# compound, recovery
measured = [
    ("C[C@H](CCC(=O)NCCS(=O)(=O)O)[C@H]1CC[C@H]2[C@@H]3[C@@H](O)C[C@@H]4C[C@H](O)CC[C@]4(C)[C@H]3CC[C@]12C [TUDCA, tauroursodeoxycholic acid]", "> 80%"),
]

Consider the record given below.
Tell us which recovery value is on record for O=C(O)CCCc1ccccc1 [PB, sodium phenylbutyrate] > 80%

====

# Tested on: P-gp and BCRP
# test.protocol: in vitro
# conditions: human, Caco-2, pH 7.4, BL-to-AP Papp of TUDCA
readout.name: Papp B→A at 1.62 µM (×10⁻⁶ cm/s)
Report as a plain number; the unit ×10⁻⁶ cm/s is understood.

Quickly give me recorded Papp B→A at 1.62 µM for C[C@H](CCC(=O)NCCS(=O)(=O)O)[C@H]1CC[C@H]2[C@@H]3[C@@H](O)C[C@@H]4C[C@H](O)CC[C@]4(C)[C@H]3CC[C@]12C 1.75

====

# target.entity: OAT3 (Homo sapiens)
# Sequence (Q8TCC7 1-542): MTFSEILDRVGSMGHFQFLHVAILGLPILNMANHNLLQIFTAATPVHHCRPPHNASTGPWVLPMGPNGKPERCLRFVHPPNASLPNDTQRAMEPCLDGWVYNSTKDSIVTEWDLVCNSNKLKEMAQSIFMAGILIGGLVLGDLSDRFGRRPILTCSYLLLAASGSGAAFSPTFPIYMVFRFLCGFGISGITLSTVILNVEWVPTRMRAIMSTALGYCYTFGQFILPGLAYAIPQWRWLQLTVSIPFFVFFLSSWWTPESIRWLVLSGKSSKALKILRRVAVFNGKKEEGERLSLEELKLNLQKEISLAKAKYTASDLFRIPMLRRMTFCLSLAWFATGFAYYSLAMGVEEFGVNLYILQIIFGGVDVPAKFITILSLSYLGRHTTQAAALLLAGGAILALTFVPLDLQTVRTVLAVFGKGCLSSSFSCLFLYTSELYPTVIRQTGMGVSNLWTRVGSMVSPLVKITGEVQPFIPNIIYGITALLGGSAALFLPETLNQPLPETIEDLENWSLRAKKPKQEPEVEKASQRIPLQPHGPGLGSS
# test.protocol: in vitro
# conditions: probe furosemide (5 μM)
readout.name: inhibition at 100 μM (%)
Reply with just the number (in %).

Give reported inhibition at 100 μM value for CCCN(CCC)S(=O)(=O)c1ccc(C(=O)O)cc1 [probenecid] 99.1

====

# test.protocol: Solubility assessment in HBSSg_7.4 and HBSSg_8.5
# conditions: HBSSg 8.5 buffer, 37 °C, pH 8.5, aqueous buffer, thermodynamic from solid
The compounds listed here are annotated with their solubility.

# compound, solubility
records = [
    ("O=C(O)CCCc1ccccc1 [PB, sodium phenylbutyrate]", "≥ 73.9 mM"),
]

Query compound follows.
Report solubility for C[C@H](CCC(=O)NCCS(=O)(=O)O)[C@H]1CC[C@H]2[C@@H]3[C@@H](O)C[C@@H]4C[C@H](O)CC[C@]4(C)[C@H]3CC[C@]12C [TUDCA, tauroursodeoxycholic acid] ≥ 0.81 mM

====

# test.protocol: Solubility assessment in HBSSg_7.4 and HBSSg_8.5
# conditions: HBSSg 7.4 buffer, 37 °C, pH 7.4, aqueous buffer, thermodynamic from solid
Below, each entry is listed alongside its reported solubility.

# molecule, measured.result
measured = [
    ("C[C@H](CCC(=O)NCCS(=O)(=O)O)[C@H]1CC[C@H]2[C@@H]3[C@@H](O)C[C@@H]4C[C@H](O)CC[C@]4(C)[C@H]3CC[C@]12C", "≥ 8.01 mM"),
]

Next item in the queue.
Respond only with solubility recorded for O=C(O)CCCc1ccccc1 [PB, sodium phenylbutyrate] ≥ 64.4 mM

====

# Tested on: P-gp and BCRP
# test.protocol: P-gp and BCRP substrate assessment, bidirectional permeability in C2BBe1 cells
# conditions: human, Caco-2, pH 7.4, probe digoxin (P-gp), cladribine (BCRP), BL-to-AP Papp, C2BBe1 cells, 10 μM probe, batch used with Sol_2; Average
readout.name: Papp B→A at 10 µM (×10⁻⁶ cm/s)
// note: answer is a bare numeric in ×10⁻⁶ cm/s

Return Papp B→A at 10 µM (reported value) for this compound: C[C@H]1O[C@@H](O[C@H]2[C@@H](O)C[C@H](O[C@H]3[C@@H](O)C[C@H](O[C@H]4CC[C@@]5(C)[C@H](CC[C@@H]6[C@@H]5C[C@@H](O)[C@]5(C)[C@@H](C7=CC(=O)OC7)CC[C@]65O)C4)O[C@@H]3C)O[C@@H]2C)C[C@H](O)[C@@H]1O 12.8
